Sourced from patent US8895499B2

Test system: human red blood cells (hRBC)
Assay type: cell-based
Settings: red cells of human, 1 h
Peptide text beside a SMILES is read from it.
assay-endpoint: Hemolysis at 100 μg/mL (%)
Just the number in %, nothing appended.

# Hemolysis at 100 μg/mL of CC[C@H](C)[C@@H]1NC(=O)[C@H](CCN)NC(=O)[C@H](Cc2c[nH]c3ccccc23)NC(=O)[C@@H]2CCCN2C(=O)[C@H]2CCCN2C(=O)[C@H](C)NC(=O)[C@H](CCC(N)=O)NC(=O)[C@H](CC(C)C)NC(=O)[C@H](CCCNC(=N)N)NC(=O)[C@H](CCC(N)=O)NC(=O)[C@H](CC(N)=O)NC(=O)[C@@H](CCCNC(=N)N)NC(=O)[C@H]([C@@H](C)CC)NC(=O)[C@H](CCCNC(=N)N)NC1=O [Example 5] (HELM PEPTIDE1{W.[Dab].I.R.I.[dR].N.Q.R.L.Q.A.[dP].P}$PEPTIDE1,PEPTIDE1,1:R1-14:R2$$$V2.0) = 0.0

###

Test: in vitro
Type: cell-based
Conditions: African green monkey
Peptide text beside a SMILES is read from it.
The reader will find reported GI50 at 48 h values listed item by item below.

| molecule | GI50 at 48 h |
| --- | --- |
| CC[C@H](C)[C@@H]1NC(=O)[C@H](CCCNC(=N)N)NC(=O)[C@H]([C@@H](C)CC)NC(=O)[C@H](CCCNC(=N)N)NC(=O)[C@H](Cc2c[nH]c3ccccc23)NC(=O)[C@@H]2CCCN2C(=O)[C@H]2CCCN2C(=O)[C@H](C)NC(=O)[C@H](CCC(N)=O)NC(=O)[C@H](CC(C)C)NC(=O)[C@H](CCCNC(=N)N)NC(=O)[C@H](CCC(N)=O)NC(=O)[C@H](CC(N)=O)NC(=O)[C@H](CCCN)NC1=O [Example 9] (HELM PEPTIDE1{W.R.I.R.I.[Orn].N.Q.R.L.Q.A.[dP].P}$PEPTIDE1,PEPTIDE1,1:R1-14:R2$$$V2.0) | > 50 µg/mL |

Here is the next item to consider.
# GI50 at 48 h of CC[C@H](C)[C@@H]1NC(=O)[C@H](CCCNC(=N)N)NC(=O)[C@H](Cc2c[nH]c3ccccc23)NC(=O)[C@@H]2CCCN2C(=O)[C@H]2CCCN2C(=O)[C@H](C)NC(=O)[C@H](CCC(N)=O)NC(=O)[C@H](CC(C)C)NC(=O)[C@H](CCCNC(=N)N)NC(=O)[C@H](CCC(N)=O)NC(=O)[C@H]([C@@H](C)O)NC(=O)[C@@H](CCCNC(=N)N)NC(=O)[C@H]([C@@H](C)CC)NC(=O)[C@H](CCCNC(=N)N)NC1=O [Example 12] (HELM PEPTIDE1{W.R.I.R.I.[dR].T.Q.R.L.Q.A.[dP].P}$PEPTIDE1,PEPTIDE1,1:R1-14:R2$$$V2.0) = > 50 µg/mL

###

The reader will find reported Hemolysis at 100 μg/mL values listed item by item below.
Test system: human red blood cells (hRBC)
Format: cell-based
Details: red cells of human, 1 h
Peptide text beside a SMILES is read from it.
Just the number in %, nothing appended.

| compound | Hemolysis at 100 μg/mL (%) |
| --- | --- |
| CC[C@H](C)[C@@H]1NC(=O)[C@H](CCCNC(=N)N)NC(=O)[C@H]([C@@H](C)CC)NC(=O)[C@H](CCCNC(=N)N)NC(=O)[C@H](Cc2c[nH]c3ccccc23)NC(=O)[C@@H]2CCCN2C(=O)[C@H]2CCCN2C(=O)[C@H](C)NC(=O)[C@H](CCC(N)=O)NC(=O)[C@H](CC(C)C)NC(=O)[C@H](CCCNC(=N)N)NC(=O)[C@H](CCC(N)=O)NC(=O)[C@H](CC(N)=O)NC(=O)[C@H](CCCN)NC1=O [Example 9] (HELM PEPTIDE1{W.R.I.R.I.[Orn].N.Q.R.L.Q.A.[dP].P}$PEPTIDE1,PEPTIDE1,1:R1-14:R2$$$V2.0) | 0.0 |

# Hemolysis at 100 μg/mL of CC[C@H](C)[C@@H]1NC(=O)[C@H](CCCN)NC(=O)[C@H](Cc2c[nH]c3ccccc23)NC(=O)[C@@H]2CCCN2C(=O)[C@H]2CCCN2C(=O)[C@H](C)NC(=O)[C@H](CCC(N)=O)NC(=O)[C@H](CC(C)C)NC(=O)[C@H](CCCNC(=N)N)NC(=O)[C@H](CCC(N)=O)NC(=O)[C@H](CC(N)=O)NC(=O)[C@@H](CCCNC(=N)N)NC(=O)[C@H]([C@@H](C)CC)NC(=O)[C@H](CCCNC(=N)N)NC1=O [Example 6] (HELM PEPTIDE1{W.[Orn].I.R.I.[dR].N.Q.R.L.Q.A.[dP].P}$PEPTIDE1,PEPTIDE1,1:R1-14:R2$$$V2.0) = 0.0

###

Assay: in vitro
Type: cell-based
Conditions: human
Peptide text beside a SMILES is read from it.
The reader will find reported GI50 at 48 h values listed item by item below.

| compound | GI50 at 48 h |
| --- | --- |
| CC[C@H](C)[C@@H]1NC(=O)[C@H](CCCN)NC(=O)[C@H](Cc2c[nH]c3ccccc23)NC(=O)[C@@H]2CCCN2C(=O)[C@H]2CCCN2C(=O)[C@H](C)NC(=O)[C@H](CCC(N)=O)NC(=O)[C@H](CC(C)C)NC(=O)[C@H](CCCNC(=N)N)NC(=O)[C@H](CCC(N)=O)NC(=O)[C@H](CC(N)=O)NC(=O)[C@@H](CCCNC(=N)N)NC(=O)[C@H]([C@@H](C)CC)NC(=O)[C@H](CCCNC(=N)N)NC1=O [Example 6] (HELM PEPTIDE1{W.[Orn].I.R.I.[dR].N.Q.R.L.Q.A.[dP].P}$PEPTIDE1,PEPTIDE1,1:R1-14:R2$$$V2.0) | > 50 µg/mL |

Here is the next item to consider.
# GI50 at 48 h of CC[C@H](C)[C@@H]1NC(=O)[C@H](CCCNC(=N)N)NC(=O)[C@H]([C@@H](C)CC)NC(=O)[C@H](CCCNC(=N)N)NC(=O)[C@H](Cc2c[nH]c3ccccc23)NC(=O)[C@@H]2CCCN2C(=O)[C@H]2CCCN2C(=O)[C@H](C)NC(=O)[C@H](CCC(N)=O)NC(=O)[C@H](CC(C)C)NC(=O)[C@H](CCCNC(=N)N)NC(=O)[C@H](CCC(N)=O)NC(=O)[C@H](CC(N)=O)NC(=O)[C@H](CCN)NC1=O [Example 10] (HELM PEPTIDE1{W.R.I.R.I.[Dab].N.Q.R.L.Q.A.[dP].P}$PEPTIDE1,PEPTIDE1,1:R1-14:R2$$$V2.0) = > 50 µg/mL

###

Assay: in vitro
Format: cell-based
Conditions: human
Peptide text beside a SMILES is read from it.
assay-endpoint: GI50 at 48 h

# GI50 at 48 h of CC[C@H](C)[C@@H]1NC(=O)[C@H](CCN)NC(=O)[C@H](Cc2c[nH]c3ccccc23)NC(=O)[C@@H]2CCCN2C(=O)[C@H]2CCCN2C(=O)[C@H](C)NC(=O)[C@H](CCC(N)=O)NC(=O)[C@H](CC(C)C)NC(=O)[C@H](CCCNC(=N)N)NC(=O)[C@H](CCC(N)=O)NC(=O)[C@H](CC(N)=O)NC(=O)[C@@H](CCCNC(=N)N)NC(=O)[C@H]([C@@H](C)CC)NC(=O)[C@H](CCCNC(=N)N)NC1=O [Example 5] (HELM PEPTIDE1{W.[Dab].I.R.I.[dR].N.Q.R.L.Q.A.[dP].P}$PEPTIDE1,PEPTIDE1,1:R1-14:R2$$$V2.0) = > 50 µg/mL

###

Experiment: in vitro
Format: cell-based
Conditions: human
Peptide text beside a SMILES is read from it.
assay-endpoint: GI50 at 48 h

# GI50 at 48 h of CC[C@H](C)[C@@H]1NC(=O)[C@H](CCCNC(=N)N)NC(=O)[C@H](Cc2c[nH]c3ccccc23)NC(=O)[C@@H]2CCCN2C(=O)[C@H]2CCCN2C(=O)[C@H](C)NC(=O)[C@H](CCC(N)=O)NC(=O)[C@H](CC(C)C)NC(=O)[C@H](CCCNC(=N)N)NC(=O)[C@H](CCC(N)=O)NC(=O)[C@H](CCC(N)=O)NC(=O)[C@@H](CCCNC(=N)N)NC(=O)[C@H]([C@@H](C)CC)NC(=O)[C@H](CCCNC(=N)N)NC1=O [Example 11] (HELM PEPTIDE1{W.R.I.R.I.[dR].Q.Q.R.L.Q.A.[dP].P}$PEPTIDE1,PEPTIDE1,1:R1-14:R2$$$V2.0) = > 50 µg/mL

# GI50 at 48 h of CC[C@H](C)[C@@H]1NC(=O)[C@H](CCCNC(=N)N)NC(=O)[C@H](Cc2c[nH]c3ccccc23)NC(=O)[C@@H]2CCCN2C(=O)[C@H]2CCCN2C(=O)[C@H](C)NC(=O)[C@H](CCC(N)=O)NC(=O)[C@H](CC(C)C)NC(=O)[C@H](CCCNC(=N)N)NC(=O)[C@H](CCC(N)=O)NC(=O)[C@H]([C@@H](C)O)NC(=O)[C@@H](CCCNC(=N)N)NC(=O)[C@H]([C@@H](C)CC)NC(=O)[C@H](CCCNC(=N)N)NC1=O [Example 12] (HELM PEPTIDE1{W.R.I.R.I.[dR].T.Q.R.L.Q.A.[dP].P}$PEPTIDE1,PEPTIDE1,1:R1-14:R2$$$V2.0) = > 50 µg/mL
